Test Target: human 5-HT4(b) receptors (Homo sapiens, UniProt Q13639)
Construct: expressed in transfected cells
Sequence (Q13639 whole entry): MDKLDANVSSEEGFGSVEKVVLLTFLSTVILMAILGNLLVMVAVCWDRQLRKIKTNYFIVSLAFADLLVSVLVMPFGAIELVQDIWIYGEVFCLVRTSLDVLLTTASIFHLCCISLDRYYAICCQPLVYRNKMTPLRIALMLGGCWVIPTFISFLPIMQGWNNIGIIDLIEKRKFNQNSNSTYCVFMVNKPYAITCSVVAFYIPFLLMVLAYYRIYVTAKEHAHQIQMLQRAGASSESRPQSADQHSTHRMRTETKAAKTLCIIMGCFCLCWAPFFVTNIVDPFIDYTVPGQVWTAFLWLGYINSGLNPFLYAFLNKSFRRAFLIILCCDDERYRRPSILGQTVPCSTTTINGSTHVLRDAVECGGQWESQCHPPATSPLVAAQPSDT
Test Method Notes: Adenylyl cyclase assay in membranes of HEK293 cells stably expressing human 5-HT4(b) receptors
Format: biochemical
Setup Conditions: where n = 2, ± half-range, read-out: Antagonist pKb value (pKb ± SEM) (converted)
The entries below come with measured Kb values attached.
Field: numeric (nM). Do not append units.

### Prompt Look up Kb of O=C(O)CCCN1CCC(NC(=O)c2cccc3ccccc23)CC1 [Example 17] and report it.
### Response 38000

### Prompt Look up Kb of CC(C)n1nc(C(=O)NC2CCN(CCCC(=O)O)CC2)c2ccccc21 [Example 33] and report it.
### Response 1050

### Prompt Look up Kb of O=C(OCC1CCN(Cc2ccccc2)CC1)c1cccc2ccccc12 [Example 22] and report it.
### Response 11.2

### Prompt Look up Kb of CCOP(=O)(CCN1CCC(CNC(=O)c2c3n(c4ccccc24)CCCO3)CC1)OCC [Example 53] and report it.
### Response 2.51

----------
Test Target: human 5-HT4(b) receptors (Homo sapiens)
Construct: expressed in transfected cells
Test Method Notes: Adenylyl cyclase assay in membranes of HEK293 cells stably expressing human 5-HT4(b) receptors
Format: biochemical
Value Type: Agonist/Antagonist properties

These solved cases illustrate the format of a correct answer.
{"columns": ["Smiles Record", "Result"],
 "data": [
  ["O=C(NCC1CCN(Cc2ccccc2)CC1)c1c2n(c3ccccc13)CCCO2", "Antagonist"],
  ["CCOC(=O)CCCN1CCC(CNC(=O)c2cc(Cl)c(N)cc2OC)CC1", "Partial agonist"],
  ["CC(C)n1nc(C(=O)NC2CCN(Cc3ccccc3)CC2)c2ccccc21", "Partial agonist"],
  ["CC(C)n1nc(C(=O)NC2CCN(CCCC(=O)O)CC2)c2ccccc21", "Partial agonist"],
  ["CCOC(=O)CCCN1CCC(NC(=O)c2cccc3ccccc23)CC1", "Antagonist"]
]}

// below: Agonist/Antagonist properties requested for another compound
### Prompt Look up Agonist/Antagonist properties of `CCOC(=O)CCCN1CCC(COC(=O)c2cccc3ccccc23)CC1` and report it.
### Response Antagonist

----------
The entries below come with measured Kb values attached.
Test Target: human 5-HT4(b) receptors (Homo sapiens, UniProt Q13639)
Construct: expressed in transfected cells
Test Method Notes: Adenylyl cyclase assay in membranes of HEK293 cells stably expressing human 5-HT4(b) receptors
Format: biochemical
Setup Conditions: where n = 2, ± half-range, read-out: Antagonist pKb value (pKb ± SEM) (converted)

These solved cases illustrate the format of a correct answer.
{"columns": ["Molecule", "Test Target", "Result"],
 "data": [
  ["O=C(O)CCCN1CCC(CNC(=O)c2c3n(c4ccccc24)CCCO3)CC1 [Example 52]", "human 5-HT4(b) receptors (Homo sapiens, UniProt Q13639)", "11 nM"],
  ["Cn1cc(C(=O)OCC2CCN(CCNS(C)(=O)=O)CC2)c2ccccc21 [GR113808, reference compound]", "human 5-HT4(b) receptors (Homo sapiens, UniProt Q13639)", "0.537 nM"]
]}

// below: Kb requested for another molecule
### Prompt Look up Kb of CCOP(=O)(CCN1CCC(COC(=O)c2cccc3ccccc23)CC1)OCC [Example 27] and report it.
### Response 19.1 nM
